// pKd lookup, one value per entry
- Measured Target: Human recombinant FAP (Homo sapiens, UniProt Q12884)
- Sequence (Q12884 whole entry): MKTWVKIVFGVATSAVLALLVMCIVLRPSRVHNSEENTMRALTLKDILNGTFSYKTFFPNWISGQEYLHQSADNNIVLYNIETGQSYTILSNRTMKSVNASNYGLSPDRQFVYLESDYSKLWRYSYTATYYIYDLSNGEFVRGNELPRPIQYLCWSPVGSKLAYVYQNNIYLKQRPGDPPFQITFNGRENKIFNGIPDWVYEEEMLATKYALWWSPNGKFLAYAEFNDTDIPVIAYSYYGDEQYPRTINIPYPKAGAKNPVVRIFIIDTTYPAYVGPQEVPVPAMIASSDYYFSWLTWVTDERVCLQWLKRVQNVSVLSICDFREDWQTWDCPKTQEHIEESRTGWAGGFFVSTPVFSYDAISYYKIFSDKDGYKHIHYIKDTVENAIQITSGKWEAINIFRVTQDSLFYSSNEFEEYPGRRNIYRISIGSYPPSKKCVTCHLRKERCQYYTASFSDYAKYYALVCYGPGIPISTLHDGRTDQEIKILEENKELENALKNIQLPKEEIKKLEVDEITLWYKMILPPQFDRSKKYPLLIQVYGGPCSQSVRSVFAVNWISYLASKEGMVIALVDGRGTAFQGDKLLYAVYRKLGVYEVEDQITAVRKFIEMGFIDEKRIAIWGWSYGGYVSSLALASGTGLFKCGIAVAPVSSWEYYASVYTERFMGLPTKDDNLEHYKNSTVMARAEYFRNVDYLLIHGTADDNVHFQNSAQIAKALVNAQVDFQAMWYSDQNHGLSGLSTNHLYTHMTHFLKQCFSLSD
- Protocol Description: Surface plasmon resonance (Biacore) assay
pKd: −log10 of the molar value. Numbered stars: 1 amine (or outer) side, 2 acyl side, 3 side chain; on linkers, the order of the positions; unused ones are H or OH. Bridge positions count the residues as written; N and C are the ends. Peptide text beside a SMILES is read from it. * marks the point of attachment. X19 = NC(=O)[C@H](CCCCNC(=O)CN1CCN(CC(=O)O)CCN(CC(=O)O)CCN(CC(=O)O)CC1)NC(=O)CCC(=O)NCCCOCCOCCNCCCN*; X8 = O=C1CN2CCN3CCN(CC(=O)N4CCN(Cc5cc(C[*:1])cc(C[*:2])c5)CC4)CCN(CC2)CC(=O)[O][Ga]([O]1)[O]C(=O)C3; mXylylene = c1cc(C[*:1])cc(C[*:2])c1; Hexanoyl = CCCCCC(=O)*

- Compound: "CCCCCC(=O)N[C@H]1CSCc2cc(cc(CN3CCN(C(=O)CN4CCN5CCN6CCN(CC4)CC(=O)[O][Ga]([O]C(=O)C6)[O]C(=O)C5)CC3)c2)CSC[C@@H](C(=O)N[C@@H](CC(=O)O)C(N)=O)NC(=O)[C@H](Cc2ccccc2)NC(=O)[C@H](CCC(N)=O)NC(=O)[C@H]([C@@H](C)O)NC(=O)[C@@H]2CCCN2C(=O)[C@@H]2CCCN2C1=O [3BP-3592] (Hexanoyl-CPPTQFCD-NH2; linker 1-7 via X8)"
  pKd: "> 8.00"

Which pKd is reported with Human recombinant FAP (Homo sapiens, UniProt Q12884) for this entry: CCCCCC(=O)N[C@H]1CSCc2cccc(c2)CSC[C@@H](C(=O)N[C@@H](CC(=O)O)C(=O)NCCCNCCOCCOCCCNC(=O)CCC(=O)N[C@@H](CCCCNC(=O)CN2CCN(CC(=O)O)CCN(CC(=O)O)CCN(CC(=O)O)CC2)C(N)=O)NC(=O)[C@H](Cc2ccccc2)NC(=O)[C@H](CCC(N)=O)NC(=O)[C@H]([C@@H](C)O)NC(=O)[C@@H]2CCCN2C(=O)[C@@H]2CCCN2C1=O [3BP-3395] (Hexanoyl-CPPTQFCD-X19; linker 1-7 via mXylylene) ?
> 8.00

Which pKd is reported with Human recombinant FAP (Homo sapiens, UniProt Q12884) for this entry: `CCCCCC(=O)N[C@H]1CSCc2cc(CSCCNC(=O)CN3CCN(CC(=O)O)CCN(CC(=O)O)CCN(CC(=O)O)CC3)cc(c2)CSC[C@@H](C(=O)N(C)CC(N)=O)NC(=O)[C@H](Cc2ccccc2)NC(=O)[C@H](CCC(N)=O)NC(=O)[C@H]([C@@H](C)O)NC(=O)[C@@H]2CCCN2C(=O)[C@@H]2CCCN2C1=O` ?
> 8.00
